# Test system: HOP-92 NSCLC
# EXPERIMENT: NCI tumour cell line growth inhibition, 48 h
Here, each record is paired with measured TGI data.

MOLECULE	COMPARATOR	TGI [µM]
COC1=CC(=O)C2=C(C1=O)[C@H]1CC[C@]3(C)C(=O)CC[C@H]3[C@@H]1CC2	=	35.8
CS(=O)(=O)ON1C(=O)c2ccc(N)cc2C1=O	>	100
Cc1cc(N(CCC#N)CCC#N)ccc1/C(Sc1ccccc1)=C(\NC(=O)/C=C/c1ccccc1)C(=O)Sc1ccccc1	=	15
CC[C@]1(O)CC2CN(CCc3c([nH]c4ccccc34)C(C(=O)OC)(c3cc4c(cc3OC)N(C=O)[C@H]3[C@@](O)(C(=O)OC)[C@H](OC(C)=O)[C@]5(CC)[C@@H]6C[C@@H]6CN6CC[C@]43[C@@H]65)C2)C1 (some centres not stated)	=	0.0121
O=C(O[C@H](/C=C/c1ccccc1)P1(=O)N(Cc2ccccc2)[C@H]2CCCC[C@@H]2N1Cc1ccccc1)c1ccccc1	=	5.86
CC(=O)Nc1ccc2cc(C#N)c(=O)[nH]c2n1	>	100
CN(C)Cc1ccc(O)c(CN(C)C)n1	>	100
C/C=C(/C)C(=O)OC1C=C(CO)C(=O)C(OC(=O)C2(C)OC2C)C1C(C)C (configuration not stated)	=	3.33
[N-]=[N+]=NC1(Cc2ccccc2)C(=O)Nc2ccccc2C1=O (configuration not stated)	>	100
N#Cc1c(-c2ccccc2)nc(SCC(O)CN2CCOCC2)nc1N1CCOCC1 (configuration not stated)	=	2.23
CC1=C(C)C2(C#N)C(=O)N3C(=NC(c4ccco4)NC3c3ccco3)C2(C#N)C(c2ccco2)N1 (configuration not stated)	>	100
O=C(Nc1nc2ccc(OC(F)(F)F)cc2s1)c1ccc(F)cc1	=	8.35
Cc1cc(NS(=O)(=O)c2ccc(NC(=O)c3cccc4c(Nc5ccc(S(=O)(=O)Nc6cc(C)on6)cc5)c5ccc(Cl)cc5nc34)cc2)no1	=	80.5
CCCCNC(=O)CC1=C(C)/C(=C/c2[nH]c(-c3ccc[nH]3)cc2OC)N=C1C	=	7.09
Nc1ccc(C2(c3ccc(N)cc3)C3CC4CC(C3)CC2C4)cc1	=	28.5
Fc1ccc(C2CC(c3cccc(Nc4ccncc4)c3)=NN2c2ccccc2)cc1 (configuration not stated)	=	2.73
O=C(CNc1ccc([N+](=O)[O-])cc1)Nn1c(-c2ccccc2)nc2ccccc2c1=O	=	6.66
Cn1cc(Nc2nccc(-c3ccc4c(c3)CN(C3COC3)CC[C@H]4NC(=O)c3cn(C(C)(C)C)nn3)n2)cn1	=	89.7
CC=C/C=C/[C@@H]1O[C@](O)([C@H](CC)C(=O)NC/C=C/C=C(\C)[C@@H](OC)[C@@H](C)[C@@H]2O[C@H](/C=C/C=C/C=C(\C)C(=O)c3c(O)cc[nH]c3=O)[C@H](O)[C@@H]2O)[C@H](O)[C@H](O)C1(C)C	>	100
COC(=O)C1=C(C)NC(CF)=C(C(=O)OC)C1c1cccc2c(=O)c3ccccc3oc12 (configuration not stated)	=	35.3
Cc1c(Br)c(Br)c2c3c1nc(N1CCNCC1)n3CCC2	=	1.12
CN1C(=O)C(O)CC1c1ccccc1F (configuration not stated)	>	100
CCc1cccc(C(C)C)c1NC(=O)C(=O)Nn1c(=S)[nH]c2ccccc2c1=O	>	100
O=Nn1c2ccccc2c2ccccc21	>	100
COc1cc(C(=O)/C=C/c2cccnc2Nc2ccc(Cl)cc2)cc(OC)c1OC	=	2.14
Cc1cc(NS(=O)(=O)c2ccc(-c3cnc(C4CC4)o3)cc2)ccc1Cl	=	10.1
CN1CCOC1(C)c1ccccc1 (configuration not stated)	>	100
O=S1(=O)C[C@H](NCc2ccccc2)[C@H](NCc2ccccc2)C1	>	100
CCN(CC)CCOc1ccc2c(-c3ccccc3)c(-c3ccc(OC)cc3)c(=O)oc2c1	=	10.7
Cc1ncnc2c1ccn2[C@@H]1C[C@H](Oc2cc(C(F)F)c(F)c3c2CNCC3)[C@@H](O)[C@H]1O	>	100
COC(=O)C1C(=O)C(C(=O)OC)C2CCC1N2C (configuration not stated)	>	77.3
O=C1CCC2(c3ccccc3)OCC([C@@H](O)c3ccccc3)N12 (some centres not stated)	>	100
CC(=O)O[C@H]1[C@@H](OC2CCCC2(c2ccccc2)c2ccccc2)O[N+]([O-])=C[C@@H]1c1ccccc1 (some centres not stated)	=	18.2
Cc1cc2c3c(nc4ccccc42)C(=O)c2cccnc2-c3n1	=	8.52
C=C(CC)C(=O)c1ccc(OCC(=O)O)c(Cl)c1Cl	=	25.2
C=C1C(=O)O[C@H]2C(=O)[C@H](C)CCC/C(C)=C/CC[C@@]3(C)O[C@@H]3C[C@@H]12	=	2.99
CC(=O)[CH-]C(=O)c1ccccc1.CC(=O)[CH-]C(=O)c1ccccc1.CC(=O)[CH-]C(=O)c1ccccc1.[Cl-].[Hf+4]	=	50.4
